TESTED TARGET: Melanocortin-1 receptor (MC1R), human recombinant, in CHO-K1 cells (human) (UniProt Q01726)
Sequence (Q01726 whole entry): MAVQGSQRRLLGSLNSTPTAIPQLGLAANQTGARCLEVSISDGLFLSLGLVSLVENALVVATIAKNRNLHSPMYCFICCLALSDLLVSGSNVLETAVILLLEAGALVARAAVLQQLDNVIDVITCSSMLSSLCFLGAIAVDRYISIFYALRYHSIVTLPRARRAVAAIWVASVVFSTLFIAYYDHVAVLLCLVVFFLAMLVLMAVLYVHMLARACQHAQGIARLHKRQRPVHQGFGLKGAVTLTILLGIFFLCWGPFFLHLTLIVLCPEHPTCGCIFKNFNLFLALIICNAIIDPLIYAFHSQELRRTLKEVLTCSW
[ ]: non-standard residue; d: D form. The star is where a group is joined. Bz = O=C(c1ccccc1)*; NPr2 = CCCN(CCC)*
Here, each record is paired with measured EC50 of MC1R activation (cAMP HTRF assay, CHO-K1 cells expressing human MC1R) data.
Enter your answer as a number in nM; do not include the unit.

Bz-GH[dF]RW-NH2 (SMILES N=C(N)NCCC[C@H](NC(=O)[C@@H](Cc1ccccc1)NC(=O)[C@H](Cc1c[nH]cn1)NC(=O)CNC(=O)c1ccccc1)C(=O)N[C@@H](Cc1c[nH]c2ccccc12)C(N)=O) [MC1R-agonist pentapeptide 1 (Bz-Gly-His-D-Phe-Arg-L-Trp-NH2)]    0.041

Which EC50 of MC1R activation (cAMP HTRF assay, CHO-K1 cells expressing human MC1R) reading was recorded for the binder Bz-GH[dF]RW-NPr2 (SMILES CCCN(CCC)C(=O)[C@H](Cc1c[nH]c2ccccc12)NC(=O)[C@H](CCCNC(=N)N)NC(=O)[C@@H](Cc1ccccc1)NC(=O)[C@H](Cc1c[nH]cn1)NC(=O)CNC(=O)c1ccccc1) [MC1R-agonist pentapeptide 5 (Bz-Gly-His-D-Phe-Arg-L-Trp-N(Propyl)2)] ? 0.88
